assayed-target: UniProt:P22303
pIC50: −log10 of the molar value.
Hi, to clarify the labels: criterion met covers pIC50 from 8 upward, criterion not met covers anything below 8.

>>> assigned_class("Cc1ccccc1")
"criterion met"
>>> assigned_class("Cc1ccc(C)cc1")
"criterion not met"
>>> assigned_class("COc1ccc(C)cc1OC")
"criterion not met"
>>> assigned_class("Cc1cccc(O)c1")
"criterion not met"
>>> assigned_class("COc1cccc(C)c1")
"criterion not met"
>>> assigned_class("Cc1cccc(F)c1")
"criterion met"
>>> assigned_class("Cc1ccc(O)cc1")
"criterion met"
>>> assigned_class("COc1cc(C)cc(OC)c1OC")
"criterion not met"
>>> assigned_class("Cc1ccc([N+](=O)[O-])cc1")
"criterion not met"
>>> assigned_class("Cc1cccc(C)c1")
"criterion met"

====

assayed-target: Acetylcholinesterase (Homo sapiens, UniProt P22303)
Sequence (P22303 whole entry): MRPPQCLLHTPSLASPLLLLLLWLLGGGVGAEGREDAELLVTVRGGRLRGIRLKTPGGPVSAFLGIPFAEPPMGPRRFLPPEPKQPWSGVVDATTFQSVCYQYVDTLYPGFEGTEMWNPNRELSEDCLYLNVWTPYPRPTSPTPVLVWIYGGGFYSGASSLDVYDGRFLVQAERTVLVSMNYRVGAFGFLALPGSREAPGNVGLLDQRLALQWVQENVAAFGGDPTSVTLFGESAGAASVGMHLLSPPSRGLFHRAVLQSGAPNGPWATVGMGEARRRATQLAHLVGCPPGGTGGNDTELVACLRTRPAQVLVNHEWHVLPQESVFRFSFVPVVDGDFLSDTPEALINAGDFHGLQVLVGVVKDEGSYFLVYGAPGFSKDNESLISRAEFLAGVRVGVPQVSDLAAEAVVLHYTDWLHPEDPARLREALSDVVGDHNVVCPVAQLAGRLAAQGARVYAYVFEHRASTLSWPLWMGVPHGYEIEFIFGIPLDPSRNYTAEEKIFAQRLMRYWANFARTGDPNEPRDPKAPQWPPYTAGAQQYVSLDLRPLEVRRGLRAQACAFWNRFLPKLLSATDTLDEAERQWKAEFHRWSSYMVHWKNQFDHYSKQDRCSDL
pIC50: −log10 of the molar value.
measured-endpoint: pIC50

>>> data_value("Cc1cccc2c1CC(C)C2=O (configuration not stated)")
8.15
>>> data_value("Cc1ccc2c(c1)C(=O)C(C)C2 (configuration not stated)")
7.16
>>> data_value("COc1ccc2c(c1OC)CC(C)C2=O (configuration not stated)")
7.70
>>> data_value("COc1ccc2c(c1)C(=O)C(C)C2 (configuration not stated)")
7.09
>>> data_value("COc1cc2c(cc1O)C(=O)C(C)C2 (configuration not stated)")
8.88
>>> data_value("CC1Cc2cc3c(cc2C1=O)OCO3 (configuration not stated)")
7.64
>>> data_value("CC1Cc2ccccc2C1=O (configuration not stated)")
6.83
>>> data_value("COc1cc2c(c(OC)c1OC)C(=O)C(C)C2 (configuration not stated)")
7.88
>>> data_value("CC1Cc2ccc(F)cc2C1=O (configuration not stated)")
6.70
>>> data_value("CCOc1cc2c(cc1OCC)C(=O)C(C)C2 (configuration not stated)")
8.20
>>> data_value("COc1cc2c(cc1OC)C(=O)C(C)C2 (configuration not stated)")
8.28
>>> data_value("COc1cc2c(cc1O)CC(C)C2=O (configuration not stated)")
6.42
>>> data_value("COc1ccc2c(c1OC)C(=O)C(C)C2 (configuration not stated)")
7.06
>>> data_value("COc1cccc2c1CC(C)C2=O (configuration not stated)")
7.92
>>> data_value("COc1ccc(OC)c2c1CC(C)C2=O (configuration not stated)")
7.44
>>> data_value("COc1cc2c(c(OC)c1)C(=O)C(C)C2 (configuration not stated)")
7.60
>>> data_value("COc1cc2c(cc1OC(C)C)CC(C)C2=O (configuration not stated)")
8.05

====

Acetylcholinesterase (Homo sapiens, UniProt P22303) IC50 data
measured-endpoint: IC50 (nM)

>>> data_value("Cc1ccc(F)cc1")
9.55
>>> data_value("Cc1ccccc1C")
10
>>> data_value("Cc1ccccc1F")
9.55
